Where these numbers come from: ChEMBL document CHEMBL2331130

Form field: MIC (one value per entry).
Test system: Streptococcus dysgalactiae
Experiment: Antibacterial activity against erythromycin-resistant Streptococcus dysgalactiae A1 by broth microdilution method
Type: functional
Quick reminder: number only, in µg/mL, skip the unit.

Study these solved cases before continuing.
STRUCTURE_AS_SMILES | TARGET_SYSTEM | ENDPOINT_NAME | EXPERIMENTAL_VALUE
CC[C@H]1OC(=O)[C@H](C)C(=O)[C@H](C)[C@@H](O[C@@H]2O[C@H](C)C[C@H](N(C)C)[C@H]2O)[C@](C)(OC)C[C@@H](C)/C(=N\OC/C=C/c2cnc3ccccc3c2)[C@H](C)[C@H]2OC(=O)O[C@@]21C | Streptococcus dysgalactiae | MIC | 0.5
CC[C@H]1OC(=O)[C@H](C)[C@@H](OC(=O)Cc2ccccn2)[C@H](C)[C@@H](O[C@@H]2O[C@H](C)C[C@H](N(C)C)[C@H]2O)[C@](C)(OC)C[C@@H](C)/C(=N\OCC#Cc2cncc3ccccc23)[C@H](C)[C@H]2OC(=O)O[C@@]21C | Streptococcus dysgalactiae | MIC | 8
CC[C@H]1OC(=O)[C@H](C)[C@@H](OC(=O)Cc2cccnc2)[C@H](C)[C@@H](O[C@@H]2O[C@H](C)C[C@H](N(C)C)[C@H]2O)[C@](C)(OC)C[C@@H](C)/C(=N\OCC#Cc2cncc3ccccc23)[C@H](C)[C@H]2OC(=O)O[C@@]21C | Streptococcus dysgalactiae | MIC | 8

Next molecule, MIC to be filled in.
Entry CC[C@H]1OC(=O)[C@H](C)[C@@H](O)[C@H](C)[C@@H](O[C@@H]2O[C@H](C)C[C@H](N(C)C)[C@H]2O)[C@](C)(OC)C[C@@H](C)/C(=N\OC/C=C/c2cnc3ccccc3c2)[C@H](C)[C@H]2OC(=O)O[C@@]21C — recorded MIC = 16

---

Test system: Staphylococcus aureus
Assay: Antibacterial activity against methicillin-resistant, […], MLS-resistant (constitutive) Staphylococcus aureus PU 19 by broth microdilution method
Format: functional
# MIC values compiled below

A selection of reference data follows.
COMPOUND | TARGET_SYSTEM | EXPERIMENTAL_VALUE
CC[C@H]1OC(=O)[C@H](C)[C@@H](O)[C@H](C)[C@@H](O[C@@H]2O[C@H](C)C[C@H](N(C)C)[C@H]2O)[C@](C)(OC)C[C@@H](C)/C(=N\OC/C=C/c2cnc3ccccc3c2)[C@H](C)[C@H]2OC(=O)O[C@@]21C | Staphylococcus aureus | > 256 µg/mL
CC[C@H]1OC(=O)[C@H](C)[C@@H](O[C@H]2C[C@@](C)(OC)[C@@H](O)[C@H](C)O2)[C@H](C)[C@@H](O[C@@H]2O[C@H](C)C[C@H](N(C)C)[C@H]2O)[C@](C)(O)C[C@@H](C)CN(C)[C@H](C)[C@@H](O)[C@]1(C)O [AZITHROMYCIN] | Staphylococcus aureus | > 256 µg/mL
CC[C@H]1OC(=O)[C@H](C)[C@@H](OC(=O)Cc2ccccn2)[C@H](C)[C@@H](O[C@@H]2O[C@H](C)C[C@H](N(C)C)[C@H]2O)[C@](C)(OC)C[C@@H](C)/C(=N\OCC#Cc2cncc3ccccc23)[C@H](C)[C@H]2OC(=O)O[C@@]21C | Staphylococcus aureus | > 256 µg/mL

Item: CC[C@H]1OC(=O)[C@H](C)[C@@H](O)[C@H](C)[C@@H](O[C@@H]2O[C@H](C)C[C@H](N(C)C)[C@H]2O)[C@](C)(OC)C[C@@H](C)/C(=N\OCCCc2cncc3ccccc23)[C@H](C)[C@H]2OC(=O)O[C@@]21C | MIC: > 256 µg/mL

MIC reading for CC[C@H]1OC(=O)[C@H](C)[C@@H](OC(=O)Cc2cccnc2)[C@H](C)[C@@H](O[C@@H]2O[C@H](C)C[C@H](N(C)C)[C@H]2O)[C@](C)(OC)C[C@@H](C)/C(=N\OC/C=C/c2cnc3ccccc3c2)[C@H](C)[C@H]2OC(=O)O[C@@]21C : > 256 µg/mL

Looking up CC[C@H]1OC(=O)[C@H](C)C(=O)[C@H](C)[C@@H](O[C@@H]2O[C@H](C)C[C@H](N(C)C)[C@H]2O)[C@](C)(OC)C[C@@H](C)/C(=N\OC/C=C/c2ccc(-c3ccccn3)s2)[C@H](C)[C@H]2OC(=O)O[C@@]21C , I found its MIC recorded as 128 µg/mL

CC[C@H]1OC(=O)[C@H](C)[C@@H](O/C=C\Cc2cncnc2)[C@H](C)[C@@H](O[C@@H]2O[C@H](C)C[C@H](N(C)C)[C@H]2O)[C@](C)(OC)C[C@@H](C)/C(=N\OC/C=C/c2cnc3ccccc3c2)[C@H](C)[C@H]2OC(=O)O[C@@]21C yielded MIC of > 256 µg/mL

For this compound ( CC[C@H]1OC(=O)[C@H](C)C(=O)[C@H](C)[C@@H](O[C@@H]2O[C@H](C)C[C@H](N(C)C)[C@H]2O)[C@](C)(OC)C[C@@H](C)/C(=N\OC/C=C/c2ccc(-c3cccs3)cc2)[C@H](C)[C@H]2OC(=O)O[C@@]21C ), measured MIC is 64 µg/mL

Summary for this compound, CC[C@H]1OC(=O)[C@H](C)C(=O)[C@H](C)[C@@H](O[C@@H]2O[C@H](C)C[C@H](N(C)C)[C@H]2O)[C@](C)(OC)C[C@@H](C)/C(=N\OC/C=C/c2ccc(C(=O)c3ccccc3)s2)[C@H](C)[C@H]2OC(=O)O[C@@]21C : MIC is > 256 µg/mL
